Tested on: KM-H2 (Hodgkin's Lymphoma)
Test: combination Emax (second highest fraction inhibited in the dose matrix, 72 h); higher = more inhibition; extreme values may be limits of the assay
readout.label: combination Emax

Please review the following examples before continuing.
[Q] Given the molecule NC1(C(=O)N[C@@H](CCO)c2ccc(Cl)cc2)CCN(c2ncnc3[nH]ccc23)CC1 [Capivasertib] + CCN(CCO)CCCOc1ccc2c(Nc3cc(CC(=O)Nc4cccc(F)c4)[nH]n3)ncnc2c1 [AZD2811] (first compound max 10 µM, 7x7, partner max 1 µM) , write its reported combination Emax.
[A] 0.362

[Q] Given the molecule NC1(C(=O)N[C@@H](CCO)c2ccc(Cl)cc2)CCN(c2ncnc3[nH]ccc23)CC1 [Capivasertib] + Cn1cnc2c(F)c(Nc3ccc(Br)cc3Cl)c(C(=O)NOCCO)cc21 [Selumetinib] (first compound max 10 µM, 7x7, partner max 10 µM) , write its reported combination Emax.
[A] 0.292

I. Cc1cc2ncnn2cc1Nc1ncc2c(n1)n(C1CCOCC1)c(=O)n2C [AZD7648] + CN(C)CCCOc1ccc(-c2ccc3ncc4c(c3c2)n(C2CCOCC2)c(=O)n4C)cn1 [AZD0156] (first compound max 10 µM, 7x7, partner max 1 µM)
II. CN(C)CCCOc1ccc(-c2ccc3ncc4c(c3c2)n(C2CCOCC2)c(=O)n4C)cn1 [AZD0156] + C[C@@H]1COCCN1C2=NC(=NC(=C2)C3(CC3)[S@](=N)(=O)C)C4=C5C=CNC5=NC=C4 [AZD6738] (first compound max 1 µM, 7x7, partner max 10 µM)
[Q] Lab note: check whether I or II shows the higher recorded combination Emax. // caller expects the label of the chosen entry
[A] II
